# system under test: T1, MHC class I allele A*0301 monomer (human, biotinylated, bound to streptavidin-coated plate)
# T1 construct: also called A3; HLA-A3
# assay details: iTopia, multiparametric iScore
property: iScore
Answers are plain numbers.

As a guide, the following entries are already answered.
INADPRLTN [5T4 9-mer peptide 203]
0
VFLDNNPWV [5T4 9-mer peptide 145]
0

Output iScore of VSLTYVSFR [5T4 9-mer peptide 124] 0.025

Data provenance is patent US20090280138A1.
